The origin of these recorded values is patent US20240033318A1.

testTarget: T1, calcineurin expressed as the glutathione S-transferase fusion protein (GST-CN) (UniProt Q08209 2-347)
T1 construct: also called CN-GST; recombinant GST-CN; not shown: glutathione S-transferase (GST) fusion partner
T1 sequence (Q08209 2-347): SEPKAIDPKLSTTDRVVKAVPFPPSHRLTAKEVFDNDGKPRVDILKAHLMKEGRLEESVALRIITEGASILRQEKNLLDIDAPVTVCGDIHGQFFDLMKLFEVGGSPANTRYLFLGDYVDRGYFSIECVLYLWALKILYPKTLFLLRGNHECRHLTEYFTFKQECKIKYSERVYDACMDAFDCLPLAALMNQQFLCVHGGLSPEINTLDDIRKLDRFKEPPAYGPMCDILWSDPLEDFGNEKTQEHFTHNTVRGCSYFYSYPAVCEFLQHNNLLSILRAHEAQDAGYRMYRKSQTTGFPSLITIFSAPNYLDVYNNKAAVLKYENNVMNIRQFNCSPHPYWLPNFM
assayNotes: fluorescence anisotropy (FA), direct binding of FITC-labeled peptide to GST-CN
Non-standard residues stand in square brackets, D forms with d. Primed or numbered codes have the meaning given here. No end group written: not given here. *: point of attachment. FITC′ = fluorescein isothiocyanate (fluorescein label attached to the Lys side chain); FITC″ = fluorescein isothiocyanate, fluorescein thiocarbamoyl on Lys NZ; FITC = O=C1OC2(c3ccc(O)cc3Oc3cc(O)ccc32)c2ccc(NC(=S)*)cc21; Benzoyl(2,3-Cl2) = O=C(c1cccc(Cl)c1Cl)*; Tle = CC(C)(C)[C@H](N)C(=O)O; acyl = not defined here; βAla = NCCC(=O)O
Quick reference for pKd among some binders
The value called pKd is obtained by taking minus log10 of the concentration in mol/L.

The following binders have reported results that may help.
{Benzoyl(2,3-Cl2)}-[Tle]I[Tle]IT[miniPEG]K(FITC′) [peptide 12: Dcb-ZIZIT-miniPEG-Lys (FITC)] | 6.15
{Benzoyl(2,3-Cl2)}-[Tle]I[Tle]ITQH[dL]S[βAla]K(FITC″) (also called FITC-labeled peptide 14) [peptide 14: Dcb-ZIZIT-Gln-His-leu-Ser-βAla-Lys (FITC)] | 8.04
cyclopentylcarbonyl-[Tle]I[Tle]ITGPHEEYK(FITC″)-NH2 [peptide 3: cyclopentylcarbonyl-ZIZITGPHEEYK(FITC)-NH2] | 6.45

So, [Tle]I[Tle]ITGPHEEYK(FITC)-NH2 (not fully specified (N-terminus); printed as acyl-ZIZITGPHEEYK(FITC)-NH2; also: N-terminal acyl group unspecified (halogenated/alkylated benzoyl, drawing only)) [peptide 10: acyl-ZIZITGPHEEYK(FITC)-NH2] ? Its pKd was 6.72

Record {Benzoyl(2,3-Cl2)}-[Tle]I[Tle]ITQH[dL]H[βAla]K(FITC″) [peptide 15: Dcb-ZIZIT-Gln-His-leu-His-βAla-Lys (FITC)] . Reported pKd: 8.33

Short answer for acyl-[Tle]I[Tle]ITGPHEEYK(FITC″)-NH2 (reading uncertain; also: N-terminal acyl: halogenated and/or alkylated benzoyl, not named, printed as peptide 8: acyl-ZIZITGPHEEYK(FITC)-NH2) [peptide 8: acyl-ZIZITGPHEEYK(FITC)-NH2] : pKd was 7.13

GET /value?item= acyl-[Tle]I[Tle]ITGPHEEYK(FITC″)-NH2 (reading uncertain; also: N-terminal acyl: halogenated and/or alkylated benzoyl, not named, printed as peptide 7: acyl-ZIZITGPHEEYK(FITC)-NH2) [peptide 7: acyl-ZIZITGPHEEYK(FITC)-NH2] &field=pKd returns 7.49

Looking up Ac-GPHP[Tle]I[Tle]ITGPHEEYK(FITC″)-NH2 [peptide 1: Ac-GPHPZIZITGPHEEYK(FITC)-NH2] , I see its pKd listed as 7.04

// field: pKd; key: [Tle]I[Tle]ITGPHEEYK(FITC)-NH2 (not fully specified (N-terminus); printed as acyl-ZIZITGPHEEYK(FITC)-NH2; also: N-terminal acyl group unspecified (halogenated/alkylated benzoyl, drawing only)) [peptide 11: acyl-ZIZITGPHEEYK(FITC)-NH2] ; value = 7.11
